Organism: Rattus norvegicus
Assay: Open TG-GATES - Regimen: Single
Format: toxicity, organism-based, Sprague-Dawley
Parameters: regimen Single, gender Male, age 6 weeks
Details: in vivo, po, 0 mg/kg, 6 h, tissue Plasma, route gavage, dose level Control
Measured GLC accompanies every entry in the list below.
The reply should contain only the number, in mg/dL.

Solved cases below.
NS(=O)(=O)c1cc(C(=O)O)c(NCc2ccco2)cc1Cl [FUROSEMIDE]	173.8
O=c1ccc2ccccc2o1	184.6
CC(S)C(=O)NCC(=O)O (stereo not given)	184.2
O=C(O)c1ccccc1Nc1ccccc1	157.2
COc1ccc([C@@H]2Sc3ccccc3N(CCN(C)C)C(=O)[C@@H]2OC(C)=O)cc1	171.6

Problem: Report GLC for "CC(=O)[C@@]1(O)CC[C@H]2[C@@H]3C=C(Cl)C4=CC(=O)CC[C@]4(C)[C@H]3CC[C@@]21C" please.
Solution: 190.8

###

Species on record: Rattus norvegicus
Assay: Open TG-GATES - Regimen: Daily Repeat
Type: toxicity, organism-based, Sprague-Dawley
Set-up: regimen Daily Repeat, gender Male, age 6 weeks
Details: in vivo, po, 0 mg/kg, […], tissue Blood, route gavage, dose level Control, time 28 day
METRIC: WBC (x10_2/uL)
Give the quantity in x10_2/uL, number only.

Guide cases for WBC, answers given:
Nc1ccc(Cc2ccc(N)cc2)cc1	122.3
CCCCC1C(=O)N(c2ccccc2)N(c2ccccc2)C1=O	151.8
CN(C/C=C/C#CC(C)(C)C)Cc1cccc2ccccc12	135.2
O=c1ccc2ccccc2o1	128.8
CN(CCOc1ccc(CC2SC(=O)NC2=O)cc1)c1ccccn1.O=C(O)/C=C\C(=O)O (stereo not drawn) [ROSIGLITAZONE MALEATE]	114.8
CC(S)C(=O)NCC(=O)O (stereo not drawn)	114.1
CCN(CC)C(=S)SSC(=S)N(CC)CC	121
NS(=O)(=O)c1cc(C(=O)O)c(NCc2ccco2)cc1Cl [FUROSEMIDE]	98.8

Problem: Record request: WBC value, item CCCCNC(=O)NS(=O)(=O)c1ccc(C)cc1 [TOLBUTAMIDE]
Solution: 117.4

Problem: What do you have for "O=C(O)c1ccccc1Nc1ccccc1" ?
Solution: 92.6

Problem: Now try "CCO" .
Solution: 105.1

Problem: What would you report for "CC(=O)[C@@]1(O)CC[C@H]2[C@@H]3C=C(Cl)C4=CC(=O)CC[C@]4(C)[C@H]3CC[C@@]21C" ?
Solution: 118.3

Problem: What would you report for "COc1ccc([C@@H]2Sc3ccccc3N(CCN(C)C)C(=O)[C@@H]2OC(C)=O)cc1" ?
Solution: 99.4

###

Organism: Rattus norvegicus
Experiment: Open TG-GATES - Regimen: Daily Repeat
Type: toxicity, organism-based, Sprague-Dawley
Design: regimen Daily Repeat, gender Male, age 6 weeks
Settings: in vivo, po, 1000 mg/kg, 72 h, tissue Plasma, route gavage, dose level High, time 3 day
# A/G per record follows
Note: the reply should be a number with no unit written.

CCCCNC(=O)NS(=O)(=O)c1ccc(C)cc1 [TOLBUTAMIDE]	0.9
O=C(O)c1ccccc1Nc1ccccc1	0.9
CC(S)C(=O)NCC(=O)O (centres undefined)	1.3

Now, please, on to the next compound.
Problem: What measured A/G goes with "CC(=O)[C@@]1(O)CC[C@H]2[C@@H]3C=C(Cl)C4=CC(=O)CC[C@]4(C)[C@H]3CC[C@@]21C" ?
Solution: 1.2

Source listed as ChEMBL document CHEMBL3885861.
